- targetDesc: UniProtKB P07943
- experimentNotes: Inhibition of aldose reductase from rat lens. Value ranges from 20 - 160
assayEndpoint: IC50 (µM)

structureSmilesString | obsValue
CC(=O)N(CC(=O)O)c1ccc(N)cc1 | 55

====

- targetDesc: Aldo-keto reductase family 1 member B1 (Rattus norvegicus)
- experimentNotes: Compound was evaluated at 100 uM for the ability to inhibit partially purified aldose reductase obtained from rat lens
Assign class by inhibition: not lower than 20% means rule met; lower than 20% means rule not met.

compound | classAssignment
Nc1ccc(C(=O)NCC(=O)O)cc1 | rule met
Nc1ccccc1C(=O)NCC(=O)O | rule not met
COc1ccc(C(=O)NC(C)C(=O)O)cc1 (stereo not given) | rule met
CC(=O)N(CC(=O)O)c1ccccc1C | rule not met
O=C(O)CNC(=O)c1cccc([N+](=O)[O-])c1 | rule met
CC(=O)N(CC(=O)O)c1cccc(C)c1 | rule not met
Nc1cccc(C(=O)NCC(=O)O)c1 | rule met
CC(NC(=O)c1ccccc1)C(=O)O (stereo not given) | rule not met
Cc1ccc(C(=O)NC(C)C(=O)O)cc1 (stereo not given) | rule not met

====

- targetDesc: Aldo-keto reductase family 1 member B1 (Rattus norvegicus)
- experimentNotes: Inhibition of aldose reductase from rat lens. Value ranges from 50 - 650
pIC50: −log10 of the molar value.

structureSmilesString | pIC50
O=C(O)CN(C(=O)c1ccccc1)c1cccc2ccccc12 | 3.64

====

- targetDesc: Aldo-keto reductase family 1 member B1 (Rattus norvegicus)
- experimentNotes: Inhibition of aldose reductase from rat lens. Value ranges from 140 - 580
pIC50: −log10 of the molar value.
assayEndpoint: pIC50

structureSmilesString | assayEndpoint | obsValue
O=C(O)CNC(=O)c1ccc([N+](=O)[O-])cc1 | pIC50 | 3.55

====

- targetDesc: Aldo-keto reductase family 1 member B1 (Rattus norvegicus, UniProt P07943)
- experimentNotes: Inhibition of aldose reductase from rat lens. Value ranges from 1.0 - 34
pIC50: −log10 of the molar value.

structureSmilesString | pIC50
O=C(O)CN(C(=O)c1cccc2ccccc12)c1ccccc1 | 5.24

====

- targetDesc: Aldo-keto reductase family 1 member B1 (Rattus norvegicus, UniProt P07943)
- experimentNotes: Inhibition of aldose reductase from rat lens. Value ranges from 3 - 300

structureSmilesString | IC50 / µM
O=C(O)CNC(=O)c1ccccc1Cl | 31

====

- targetDesc: Aldo-keto reductase family 1 member B1 (Rattus norvegicus)
- experimentNotes: Inhibition of aldose reductase from rat lens. Value ranges from 16 - 360
pIC50: −log10 of the molar value.

molecule | pIC50
CC(=O)N(c1ccc(C)cc1)C(C)C(=O)O (stereo unspecified) | 3.89

====

- targetDesc: Aldo-keto reductase family 1 member B1 (Rattus norvegicus)
- experimentNotes: Inhibition of aldose reductase from rat lens. Value ranges from 0.15 - 3.3
pIC50: −log10 of the molar value.
assayEndpoint: pIC50

structureSmilesString | assayEndpoint | obsValue
O=C(O)CN1C(=O)c2cccc3cccc1c23 | pIC50 | 6.17

====

- targetDesc: Aldo-keto reductase family 1 member B1 (Rattus norvegicus)
- experimentNotes: Inhibition of aldose reductase from rat lens. Value ranges from 10 - 1300
pIC50: −log10 of the molar value.

compound | pIC50
CC(=O)N(c1ccccc1)C(C)C(=O)O (stereo unspecified) | 3.70

====

- targetDesc: Aldo-keto reductase family 1 member B1 (Rattus norvegicus)
- experimentNotes: Inhibition of aldose reductase from rat lens. Value ranges from 7 - 33
pIC50: −log10 of the molar value.

structureSmilesString | targetDesc | pIC50
CC(=O)N(CC(=O)O)c1ccc(C)cc1 | Aldo-keto reductase family 1 member B1 (Rattus norvegicus) | 4.82
